Where do the numbers come from? From ChEMBL document CHEMBL3433997.

- system-name: Hexose transporter 1 (Plasmodium falciparum)
- method: ST_JUDE_LEISH: Cytotoxicity at 2uM final concentration against transgenic Leishmania Mexicana promastigotes LmPfHT that are glucose transport deficient and complemented with the Plasmodium falciparum hexose transporter. Activity is measured by DNA content using SYBR green in vitro
- Assay type: functional
Reported inhibition values for the following compounds.
Could you give me the number in %? Just the number is fine.

In the examples that follow, each entry is paired with its recorded inhibition.
{"compound-structure-string": "Cc1ccc(NC(=O)c2ccnc(N3CCN(c4ccncc4)CC3)c2)cc1F", "inhibition (%)": 4.4}
{"compound-structure-string": "O=S(=O)(NCCN1CCCC1)c1cccc(-c2cccc(CNCc3ccc(F)cc3)c2)c1", "inhibition (%)": 2.85}
{"compound-structure-string": "CCc1ccc(N2C(N)=NC(N)=NC2(C)C)cc1", "inhibition (%)": 1.29}
{"compound-structure-string": "COc1c(C2CCN(CCCCNC(=O)c3ccc(-c4ccc(Cl)cc4)c(OCC(N)=O)c3)CC2)ccc2c1CCCC2", "inhibition (%)": 3.3}
{"compound-structure-string": "CCOc1cc(OCC)c2ccccc2c1CNCCCCCCNCc1c(OCC)cc(OCC)c2ccccc12", "inhibition (%)": 50.7}
{"compound-structure-string": "Cc1ccc(NC(=O)NCCCCCN2CCC(c3c[nH]c4ccccc34)CC2)cc1I", "inhibition (%)": 3.64}

Determine from records and report inhibition for COc1cc2nc(N3CCC(CNC(=O)c4ccc(-c5ccc(-c6noc(C)n6)cc5C)cc4)CC3)nc(N)c2cc1OC 7.8

Determine from records and report inhibition for COCCCNc1sc(S(=O)(=O)c2ccccc2)nc1S(=O)(=O)c1ccc(Cl)cc1 3.36
